Where do the numbers come from? From the METLIN SMRT retention time set (Domingo-Almenara et al. 2019).

experiment: gradient 5% acetonitrile 3 min, to 50% in 2 min, to 85% in 15 min, held 3 min, 100 µL/min; conditions: column: Zorbax Extend-C18 2.1 x 50 mm; eluents: water / acetonitrile, 0.1% formic acid
Short version: RP-LC retention time at least 800 s is t, less is f.

## Input Dear colleague, could you confirm whether COC(=O)c1cc(OCC(=O)Nc2ccc3c(c2)OCCO3)c2ccccc2n1 has RP-LC retention time at or above 800 s?
## Output f

## Input Dear colleague, could you confirm whether CN(C)C(CNC(=O)c1cc(=O)c2ccccc2o1)c1cn(C)c2ccccc12 (stereo not given) has RP-LC retention time at or above 800 s?
## Output f

## Input Dear colleague, could you confirm whether CC(=O)Nc1ccc(C2(C(=O)NCc3cccc(C)c3)CCC2)cc1 has RP-LC retention time at or above 800 s?
## Output f

## Input Dear colleague, could you confirm whether Cn1nccc1-c1cccc(-c2noc(C3(c4ccccc4)CC3)n2)c1 has RP-LC retention time at or above 800 s?
## Output t

## Input Dear colleague, could you confirm whether CCn1cc(-c2nc(C(=O)Nc3ccccc3C)cs2)c2cccnc21 has RP-LC retention time at or above 800 s?
## Output t

## Input Dear colleague, could you confirm whether Cc1csc2nc(CNS(=O)(=O)c3cccnc3)cn12 has RP-LC retention time at or above 800 s?
## Output f

## Input Dear colleague, could you confirm whether CCOC(=O)CCNC(=O)N1CCN(Cc2nc3cc(-c4ccccc4)ccc3o2)CC1 has RP-LC retention time at or above 800 s?
## Output f

## Input Dear colleague, could you confirm whether COc1ccc(CCC(=O)NCCCN2CCOC(c3ccccc3)C2)cc1 (stereo not given) has RP-LC retention time at or above 800 s?
## Output f

---

Could you please report measured RP-LC retention time for the items listed next?
assay: gradient 5% acetonitrile 3 min, to 50% in 2 min, to 85% in 15 min, held 3 min, 100 µL/min; settings: column: Zorbax Extend-C18 2.1 x 50 mm; eluents: water / acetonitrile, 0.1% formic acid
# output: bare number, implied unit s

In plain terms, CCC(C)NC(=O)c1cn(C)nc1S(=O)(=O)N1CCN(c2cc(Cl)ccc2C)CC1 (stereo not given) has a documented RP-LC retention time of 1150

In plain terms, O=S(=O)(Cc1ccccc1)N1CCCC(c2nn[nH]n2)C1 (stereo not given) has a documented RP-LC retention time of 706

In plain terms, CC(C)N1C(=O)c2cccnc2Sc2cc(C(=O)NC3CCCC3)ccc21 has a documented RP-LC retention time of 812

In plain terms, COc1ccccc1CNC(=O)CN1C(=O)CSc2cccn2-c2ccccc21 has a documented RP-LC retention time of 613

In plain terms, Cn1c(=O)n([C@H]2CCCN(C(=O)Nc3ccc(F)cc3F)C2)c2ncccc21 has a documented RP-LC retention time of 752

In plain terms, CCOCCCNC(=O)c1ccc(-c2ccc3c(c2)CCN3C(C)=O)cc1 has a documented RP-LC retention time of 598

In plain terms, COCCN1CCC(N2CCCN(C(=O)C3COc4ccccc4O3)CC2)C1=O (stereo not given) has a documented RP-LC retention time of 560

In plain terms, CCCN1CC(Oc2ccc(-c3noc(C4CC4)n3)cc2)C1 has a documented RP-LC retention time of 653

In plain terms, CC(C(=O)NCCc1ccccc1)n1cnc2nc(N3CCCCC3)ncc2c1=O (stereo not given) has a documented RP-LC retention time of 810

In plain terms, CCOC(=O)Cc1ccc(NC(=O)N2CCCn3nc(-c4cccs4)cc3C2)cc1 has a documented RP-LC retention time of 849

---

Could you please report measured RP-LC retention time for the items listed next?
test: gradient 5% acetonitrile 3 min, to 50% in 2 min, to 85% in 15 min, held 3 min, 100 µL/min; details: column: Zorbax Extend-C18 2.1 x 50 mm; eluents: water / acetonitrile, 0.1% formic acid
# output: bare number, implied unit s

In plain terms, CCn1cc(S(=O)(=O)NCCn2c(C)cnc2-c2ccccc2)cn1 has a documented RP-LC retention time of 560

In plain terms, CCN1C(=O)CCc2cc(NS(=O)(=O)c3ccc(Cl)c(Cl)c3)ccc21 has a documented RP-LC retention time of 904

In plain terms, CSc1ccc(CNC(=O)Cc2c(C(=O)O)c(C)cn2C)cc1 has a documented RP-LC retention time of 757

In plain terms, CCC(NC(=O)c1cn(C)c2ncccc12)c1cccs1 (centres undefined) has a documented RP-LC retention time of 800

In plain terms, CCc1noc(-c2ccc(-n3cnc(C(=O)N4CCc5ccccc5C4)c3)nc2)n1 has a documented RP-LC retention time of 924

In plain terms, CCn1c(=O)c(C)nc2cc(-c3noc(-c4ccc(N(C)C)cc4)n3)ccc21 has a documented RP-LC retention time of 1140

In plain terms, O=C(c1ccc2c(c1)OCO2)N1CCC(N2C[C@H]3C[C@H](C2)[C@H]2CCCC(=O)N2C3)CC1 has a documented RP-LC retention time of 561

In plain terms, CC1=C(C(=O)Nc2ccc(C(=O)N3CCN(c4ccc(Cl)cc4)CC3)cc2)SCCO1 has a documented RP-LC retention time of 957

In plain terms, CC(C)c1ccc(S(=O)(=O)N(C)CC2CCOCC2)cc1 has a documented RP-LC retention time of 1010

In plain terms, O=C(NCc1ccc2c(c1)OCO2)C1Cn2cccc2C(=O)N1Cc1ccccc1 (centres undefined) has a documented RP-LC retention time of 805

In plain terms, Cn1cnc(S(=O)(=O)N2CCCN(S(=O)(=O)c3cccc4nsnc34)CCNC(=O)CC2c2ccccc2)c1 (centres undefined) has a documented RP-LC retention time of 702

In plain terms, CN(CCNC(=O)c1cc(=O)n(C)c2c1c(=O)n(C)c(=O)n2C)C1CCCCC1 has a documented RP-LC retention time of 624

In plain terms, CCCC(=O)Nc1ccc2c(c1)CN(C(=O)c1ccc(F)c(F)c1)C(C(=O)N(C)C)C2 (centres undefined) has a documented RP-LC retention time of 736

In plain terms, CC1CCN(C(=O)c2cc(S(=O)(=O)N3CCC(C(=O)N4CCCCCC4)CC3)cn2C)CC1 has a documented RP-LC retention time of 839

In plain terms, CN=C(NC#N)Nc1ccc(C2=NNC(=O)CC2C)cc1 (centres undefined) has a documented RP-LC retention time of 672

In plain terms, C=CCn1c(-c2ccc(OC)cc2)nc2nc3ccccc3nc21 has a documented RP-LC retention time of 813

In plain terms, Cc1ccc(C)c(CNS(=O)(=O)c2cc(-c3nc(C(C)(C)C)cs3)cs2)c1 has a documented RP-LC retention time of 1360

In plain terms, CC(C)n1c(N2CCCN(C(=O)c3ccco3)CC2)cc(=O)n(C(C)C)c1=O has a documented RP-LC retention time of 756

In plain terms, Cn1cnc2c(C(=O)N3CCN(c4ncccn4)CC3)nn(-c3ccc(Cl)cc3)c2c1=O has a documented RP-LC retention time of 766

---

assay: gradient 5% acetonitrile 3 min, to 50% in 2 min, to 85% in 15 min, held 3 min, 100 µL/min; conditions: column: Zorbax Extend-C18 2.1 x 50 mm; eluents: water / acetonitrile, 0.1% formic acid
Could you please report measured RP-LC retention time for the items listed next?
# output: bare number, implied unit s

In plain terms, c1ccc(-c2nnc(CN3CCCCC3)o2)cc1 has a documented RP-LC retention time of 566

In plain terms, COc1ccc(OC)c(NC(=O)C2CCCN(c3ncnc4c3nc3n4CCCCC3)C2)c1 (stereo not given) has a documented RP-LC retention time of 815

In plain terms, COc1ccccc1N1CCN(CCCNc2cc(C(=O)O)c3ccccc3n2)CC1 has a documented RP-LC retention time of 575

In plain terms, Cc1ccc(NC(=O)N2CCCC2c2nncn2-c2ccccc2)cc1C (stereo not given) has a documented RP-LC retention time of 767

In plain terms, Cc1cc(NC(C)C)n2nc(-c3ccc(Cl)cc3)c(C)c2n1 has a documented RP-LC retention time of 761

---

assay: gradient 5% acetonitrile 3 min, to 50% in 2 min, to 85% in 15 min, held 3 min, 100 µL/min; details: column: Zorbax Extend-C18 2.1 x 50 mm; eluents: water / acetonitrile, 0.1% formic acid
Could you please report measured RP-LC retention time for the items listed next?
# output: bare number, implied unit s

In plain terms, O=c1cccnn1CCNS(=O)(=O)c1ccc(F)c(Cl)c1 has a documented RP-LC retention time of 665

In plain terms, O=C(Nc1ccccc1)c1cc(C2CC2)n2nccc2n1 has a documented RP-LC retention time of 957

In plain terms, CCOC(=O)c1ccccc1NC(=O)Cn1c(=O)n(-c2ccc(C)cc2)c(=O)c2c1cc(C)n2C has a documented RP-LC retention time of 1060

In plain terms, CCn1nc(-c2ccc(C)c(S(=O)(=O)N3CCC(C(N)=O)CC3)c2)c2c(c1=O)CCCC2 has a documented RP-LC retention time of 718

In plain terms, COCC1CCN(C(=O)CCC2CCN(c3cc(NC4CC4)ncn3)CC2)CC1 has a documented RP-LC retention time of 636

In plain terms, CCCNC(=O)C1CCCN(c2nc3ncn(CC(=O)NCc4ccc(F)cc4)c(=O)c3s2)C1 (stereo not drawn) has a documented RP-LC retention time of 695

In plain terms, CC(NC(=O)c1ccccc1)c1nc(-c2ccc(NS(C)(=O)=O)cc2)no1 (stereo not drawn) has a documented RP-LC retention time of 766

In plain terms, O=C(CC1CCN(C(=O)c2cc3cc(Cl)ccc3[nH]2)CC1)NCc1ccco1 has a documented RP-LC retention time of 802

In plain terms, C=CCNC(=O)c1nnn(Cc2ccc(C)cc2)c1-n1cccc1 has a documented RP-LC retention time of 966

In plain terms, COc1ccc(-c2nc(Cn3c(=O)c4c(C)cc(C)nc4n(C)c3=O)c(C)o2)cc1OC has a documented RP-LC retention time of 1100

In plain terms, CCn1cnc(S(=O)(=O)N2CCCC(C(=O)Nc3ccccc3)C2)c1 (stereo not drawn) has a documented RP-LC retention time of 726

In plain terms, CCS(=O)(=O)N1CCCc2cc(C(=O)NC(C)(C)C)ccc21 has a documented RP-LC retention time of 826

In plain terms, CC(=O)N1CCC2(CC1)OC(=O)C(C)=C2C(=O)NCCCN1CCN(c2cc(C)ccc2C)CC1 has a documented RP-LC retention time of 639

In plain terms, Cn1nccc1-c1cccc(-c2noc(/C=C/c3ccccc3Cl)n2)c1 has a documented RP-LC retention time of 1290

In plain terms, COc1cccc(N2CCN(c3cc(SCC(=O)NCc4ccccc4)ncn3)CC2)c1 has a documented RP-LC retention time of 891

In plain terms, CC1CCN(c2nc(-c3ccc(C(C)(C)C)cc3)nc3ccccc23)CC1 has a documented RP-LC retention time of 1070

In plain terms, Cc1sc(C)c(S(=O)(=O)NCc2ccc(F)cc2)c1-c1cc(C(F)(F)F)on1 has a documented RP-LC retention time of 1160

In plain terms, C[C@H]1CN(C(=O)C2(c3ccccc3)CC2)C[C@@H]1c1nc(-c2cccnc2)no1 has a documented RP-LC retention time of 827

In plain terms, CCn1cnc2ccc(-c3noc(C(C)NC(=O)c4ccccc4)n3)cc21 (stereo not drawn) has a documented RP-LC retention time of 636

In plain terms, Cc1cnc(C2CCC2)n1CC1CCCN(Cc2cn(C)c3ccccc23)C1 (stereo not drawn) has a documented RP-LC retention time of 583

In plain terms, Cn1nc(-c2nc(C3CC3)no2)c2c1CCN(C(=O)c1ccccc1Br)C2 has a documented RP-LC retention time of 821

In plain terms, O=C(Nc1ncc(S(=O)(=O)c2ccc([N+](=O)[O-])cc2)s1)c1ccccc1F has a documented RP-LC retention time of 866

In plain terms, Cc1ccc2[nH]c(C(=O)N3CCOCC3)cc2c1 has a documented RP-LC retention time of 582

In plain terms, COCCNC(=O)c1ccc2nc(CCc3ccc(NC(C)=O)cc3)[nH]c2c1 has a documented RP-LC retention time of 573

In plain terms, COc1ccc(-c2noc(C3CCCN3C(=O)Nc3ccc(C)c(C)c3)n2)cc1 (stereo not drawn) has a documented RP-LC retention time of 925

In plain terms, Cc1cccc(C)c1N1CC(c2nc3ccccc3n2CC(=O)N2CCOCC2)CC1=O (stereo not drawn) has a documented RP-LC retention time of 652

In plain terms, CCN(CC(=O)N1CCC(C(N)=O)CC1)S(=O)(=O)c1ccc(F)cc1 has a documented RP-LC retention time of 635

In plain terms, Cc1noc(C)c1CCNC(=O)CCCN1C(=O)CCn2nc(-c3cn(C)c4ccccc34)cc21 has a documented RP-LC retention time of 732

In plain terms, CNC(=O)C1CCN(c2nc3ccc(-c4cccc(OC)c4)nc3s2)CC1 has a documented RP-LC retention time of 801

In plain terms, CCn1nccc1C(=O)N1CCN(c2cc(-c3ccccc3)[nH]n2)CC1 has a documented RP-LC retention time of 694

In plain terms, CN(C)c1cccc(C(=O)NC2CCN(c3ccc(F)cc3)C2=O)c1 (stereo not drawn) has a documented RP-LC retention time of 705

In plain terms, CCOc1ccc(C(=O)NC(C(=O)Nc2nc3ccccc3[nH]2)C(C)CC)cc1 (stereo not drawn) has a documented RP-LC retention time of 750

In plain terms, CC1CCN(c2cc(-c3noc(C(=O)N4CCc5ccccc5C4)n3)ccn2)CC1 has a documented RP-LC retention time of 1010

In plain terms, CCC(=O)N1CCc2cc(C(=O)NCCC3=CCCCC3)ccc21 has a documented RP-LC retention time of 891

In plain terms, Cc1cc(=O)n(CC(=O)Nc2ccc(Br)cc2F)c(N(C)Cc2ccccc2)n1 has a documented RP-LC retention time of 862

In plain terms, COc1ccc(NC(=O)C2CCN(c3cncnc3N(C)C)CC2)cc1OC has a documented RP-LC retention time of 592

In plain terms, CC1CCN(C(=O)c2ccc3c(c2)n(C)c(=O)c2ccnn23)CC1 has a documented RP-LC retention time of 587

In plain terms, Cc1nn(C)c2nc(OC(C)C(=O)NCc3cccs3)cc(-c3ccccc3)c12 (stereo not drawn) has a documented RP-LC retention time of 1040
